meta.source: paper PMC5540273

- System: CAMKK1;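 further: KINOMEscan kinase panel screen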
- appliedConditions: concentration: 1 μM, replicates: in singlicate; n = 1
I'd be grateful if you could share measured %Inh for these entries.
One number for each entry, in %.

// solved cases for %Inh follow
| compound | tgt | readoutKind | readoutValue |
| --- | --- | --- | --- |
| O=C(Nc1n[nH]c2nc(-c3ccccc3)ccc12)C1CC1 | CAMKK1 | %Inh | 6 |
| c1ccc(Oc2ccc(Nc3ccnc4cc(-c5ccc(CN6CCCCC6)o5)ccc34)cc2)nc1 | CAMKK1 | %Inh | 0 |
| O=C(O)C(F)(F)F.O=c1[nH]ccc2nc(N[C@@H]3CCNC3)nc(Nc3ccc4c(c3)S(=O)(=O)CC4)c12 | CAMKK1 | %Inh | 92.1 |

For each listed entry, give its %Inh.
1. CCn1cnc2c(NCc3ccccc3)ncnc21
2. Cl.Cl.NC(CNC(=O)c1cc(Br)c(-c2ccnc3[nH]ccc23)s1)c1ccccc1 (centres unmarked)

1. 0
2. 8
